# System: SAS (Oral Cavity Carcinoma)
# assayProtocol: combination Emax (second highest fraction inhibited in the dose matrix, 72 h); higher = more inhibition; extreme values may be limits of the assay
Would you mind telling me the reported combination Emax of each entry?
Numbers only.

Here's what some known entries look like.
Cc1c2c(nn1C)CSCc1cc(n(C)n1)CSc1cc(c3ccccc3c1)OCCCc1c(C(=O)O)n(C)c3c-2c(Cl)ccc13 [AZD5991] + CCN(CCO)CCCOc1ccc2c(Nc3cc(CC(=O)Nc4cccc(F)c4)[nH]n3)ncnc2c1 [AZD2811] (first compound max 1 µM, 7x7, partner max 1 µM)    0.268
CC(=O)c1c(C)c2cnc(Nc3ccc(N4CCNCC4)cn3)nc2n(C2CCCC2)c1=O [Palbociclib] + Cc1c2c(nn1C)CSCc1cc(n(C)n1)CSc1cc(c3ccccc3c1)OCCCc1c(C(=O)O)n(C)c3c-2c(Cl)ccc13 [AZD5991] (first compound max 10 µM, 7x7, partner max 1 µM)    0.538
CN(CCO)CC[C@H](CSc1ccccc1)Nc1ccc(S(=O)(=O)NC(=O)c2ccc(N3CCC([C@@H](O)c4ccccc4-c4ccc(Cl)cc4)CC3)cc2)cc1S(=O)(=O)C(F)(F)F [AZD4320] + C[C@@H](Nc1cc(F)cc(F)c1)c1cc(C(=O)N(C)C)cc2c(=O)cc(N3CCOCC3)oc12 [AZD8186] (first compound max 1 µM, 7x7, partner max 3 µM)    0.77

List reported combination Emax for each of these compounds:
1. N#Cc1cnc(Nc2cc(NC[C@H]3CNCCO3)c(C(F)(F)F)cn2)cn1 [SRA737] + C=CCn1c(=O)c2cnc(Nc3ccc(N4CCN(C)CC4)cc3)nc2n1-c1cccc(C(C)(C)O)n1 [AZD1775] (first compound max 10 µM, partner max 1 µM)
2. Cc1cc2ncnn2cc1Nc1ncc2c(n1)n(C1CCOCC1)c(=O)n2C [AZD7648] + CCN(CCO)CCCOc1ccc2c(Nc3cc(CC(=O)Nc4cccc(F)c4)[nH]n3)ncnc2c1 [AZD2811] (first compound max 10 µM, 7x7, partner max 1 µM)
3. COc1cccc(OCCCN)c1-c1cc(Nc2cnc(C#N)cn2)n[nH]1 [Prexasertib] + CN(C)CCCOc1ccc(-c2ccc3ncc4c(c3c2)n(C2CCOCC2)c(=O)n4C)cn1 [AZD0156] (first compound max 1 µM, 7x7, partner max 1 µM)
4. Cc1c2c(nn1C)CSCc1cc(n(C)n1)CSc1cc(c3ccccc3c1)OCCCc1c(C(=O)O)n(C)c3c-2c(Cl)ccc13 [AZD5991] + Nc1ccn([C@@H]2O[C@H](CO)[C@@H](O)C2(F)F)c(=O)n1 [Gemcitabine] (first compound max 1 µM, 7x7, partner max 0.3 µM)

Reply |
[0.824, 0.255, 0.926, 0.924]

* * *

Kindly state Bliss excess for each of the entries shown.
# System: HH (T-Cell Non-Hodgkin's Lymphoma)
# assayProtocol: Bliss excess, mean over the matrix (fraction); higher = more synergy
Numbers only.

C[C@@H](c1ccc2nccn2c1)n1nnc2ncc(-c3cnn(C)c3)nc21 [Savolitinib] + Cc1c2c(nn1C)CSCc1cc(n(C)n1)CSc1cc(c3ccccc3c1)OCCCc1c(C(=O)O)n(C)c3c-2c(Cl)ccc13 [AZD5991] (first compound max 1 µM, 7x7, partner max 1 µM)    -0.0258

Ask | Entry CC1(C)CCC(CN2CCN(c3ccc(C(=O)NS(=O)(=O)c4ccc(NCC5CCOCC5)c([N+](=O)[O-])c4)c(Oc4cnc5[nH]ccc5c4)c3)CC2)=C(c2ccc(Cl)cc2)C1 [Venetoclax] + Cn1cnc2c(F)c(Nc3ccc(Br)cc3Cl)c(C(=O)NOCCO)cc21 [Selumetinib] (first compound max 1 µM, 7x7, partner max 3 µM) has what Bliss excess?
Reply | -0.0387

// provenance: the supplement of paper PMC11061612
